// data source = ChEMBL document CHEMBL4219061

# Test Details: Therapeutic index, ratio of IC50 for human Huh-luc/neo-ET cells to EC50 for HCV genotype 1b con1
# Assay type: toxicity
# Experimental Parameters: Huh-luc/neo-ET cells (HCV genotype 1b con1), read-out: Ratio IC50/EC50
Assay Endpoint: selectivity ratio
Write no unit; give the number alone.

Below are worked cases with known answers.
COc1cc2c3c(c4cc(OC)c(OC)cc4c2cc1OC)[C@H](O)[C@@H]1CCCN1C3    2.89
COc1ccc2c3c(c4cc(OC)c(OC)cc4c2c1)C[C@H]1CCOCCN1C3 (racemic)    7.19

# ---- query molecule ----
Entry COc1ccc2c3c(c4cc(OC)c(OC)cc4c2c1)C[C@H]1CC[C@H](O)CN1C3 (racemic) — recorded selectivity ratio = 15.2
